src = patent US11286268B1

Target: recombinant eIF4E (Homo sapiens (Human))
Assay: Fluorescence polarization competition assay for eIF4E binding potency
Conditions: fluorescence polarization competition, 75 nM recombinant eIF4E, 20 nM EDA-m7GDP-ATTO-550; IC50 class; read-out: elF4E FP
Reported IC50 values are given for each entry in this list.

>  <compoundStructureString>
C#Cc1c(-c2cc(Cl)ccc2OCCn2c(C)nc3ccc(C(F)F)c(C#N)c3c2=O)ccnc1C(=O)O

>  <IC50>
< 50 nM

$$$$
>  <compoundStructureString>
Cc1cc(-c2cc(Cl)ccc2OCCn2c(C)nc3cc(C(F)(F)F)c(-c4cccnc4)c(C#N)c3c2=O)c2scc(C(=O)O)c2n1

>  <IC50>
50 to 1000 nM

$$$$
>  <compoundStructureString>
Cc1ccc(-c2c(C(F)(F)F)cc3nc(C)n(CCOc4ccc(Cl)cc4-c4cc(C)nc5c(C(=O)O)csc45)c(=O)c3c2C#N)c(C)n1

>  <IC50>
< 50 nM

$$$$
>  <compoundStructureString>
N#Cc1cc2c(=O)n(CCOc3ccc(Cl)cc3-c3cccc(-c4nn[nH]n4)c3)cnc2cn1

>  <IC50>
50 to 1000 nM

$$$$
>  <compoundStructureString>
Cc1cc(-c2cc(Cl)ccc2OCCn2c(C)nc3cc(C)c(C)c(C#N)c3c2=O)c2scc(C(=O)O)c2n1

>  <IC50>
< 50 nM

$$$$
>  <compoundStructureString>
Cc1nc2ccc(S(=O)(=O)N3CCC3)c(C#N)c2c(=O)n1CCOc1ccc(Cl)cc1-c1ccnc2c(C(=O)O)csc12

>  <IC50>
50 to 1000 nM

$$$$
>  <compoundStructureString>
Cc1nc2cc(C(F)(F)F)cc(C#N)c2c(=O)n1CCOc1ccc(Cl)cc1-c1cc(=O)n(C)c2c(C(=O)O)csc12

>  <IC50>
< 50 nM

$$$$

* * *

Reported pIC50 values are given for each entry in this list.
Biological target: recombinant eIF4E (Homo sapiens (Human), UniProt P06730)
Sequence (P06730 whole entry): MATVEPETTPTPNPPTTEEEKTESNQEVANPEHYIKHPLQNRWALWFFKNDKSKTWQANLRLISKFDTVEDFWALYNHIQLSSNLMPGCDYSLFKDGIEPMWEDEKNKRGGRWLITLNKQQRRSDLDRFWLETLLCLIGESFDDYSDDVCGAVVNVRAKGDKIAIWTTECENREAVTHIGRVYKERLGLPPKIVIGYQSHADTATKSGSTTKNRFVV
Assay: Fluorescence polarization competition assay for eIF4E binding potency
Conditions: inhibition of eIF4E/EDA-m7GDP-ATTO-550 binding by 50%; Table 4B calculated values; read-out: IC50
pIC50: −log10 of the molar value.

>  <molecule>
Cc1nc2cc(C(F)(F)F)cc(C#N)c2c(=O)n1CCOc1ccc(Cl)cc1-c1ccnc2c(C(=O)O)csc12 [compound 61]

>  <pIC50>
7.58

$$$$
>  <molecule>
Cc1cc(F)cc(-c2c(C(F)(F)F)cc3nc(C)n(CCOc4ccc(Cl)cc4-c4cc(C)nc5c(C(=O)O)csc45)c(=O)c3c2C#N)n1

>  <pIC50>
7.82

$$$$
>  <molecule>
Cc1nc2cnc(N(C)C3CCN(CC(C)(F)F)CC3)c(C#N)c2c(=O)n1CC#Cc1ccc(Cl)cc1-c1ccnc2c(C(=O)NS(=O)(=O)C3COC3)csc12

>  <pIC50>
7.63

$$$$
>  <molecule>
Cc1cc(-c2cc(Cl)ccc2OCCn2c(C)nc3c(-c4ccccc4)nc(C4CC4)c(C#N)c3c2=O)c2scc(C(=O)O)c2n1

>  <pIC50>
7.76

$$$$
>  <molecule>
C#Cc1c(C(F)(F)F)cc2nc(C)n(CCOc3ccc(Cl)cc3-c3cc(C)nc4c(C(=O)O)csc34)c(=O)c2c1C#N

>  <pIC50>
7.75

$$$$
>  <molecule>
Cc1nc2cc(C(F)(F)F)cc(Cl)c2c(=O)n1CCOc1ccc(Cl)cc1-c1ccnc2c(C(=O)O)csc12

>  <pIC50>
6.91

$$$$
